Collected Inhibition values appear next to each entry.
Tested on: Cryptococcus neoformans
assay-conditions: Concentration 32 ug.mL-1; ASSAY_TEST Inhibition of Fungal Growth; detection method Resazurin; Absorption (OD600-OD570); plate type 384well; NBS; CORNING #3640
Description: Antifungal activity against Cryptococcus neoformans H99 ATCC 208821 (CO-ADD:FG_002); MIC in YNB media using NBS plates, by Resazurin OD(600-570)
Entries with a potency or affinity are not part of this list.
# do not omit the unit; it follows the number

Cn1cc(NC(=O)c2cc(NC(=O)CCC(=O)O)cn2C)cc1C(=O)NCCN1CCOCC1.O=C(O)C(F)(F)F ... -38.65%
CC(C)n1cc(NC(=O)c2cc(NC(=O)c3cc(NC=O)cn3C(C)C)cn2C)cc1C(=O)NCCCN(C)C.O=C(O)C(F)(F)F ... -103.79%
COc1cccc(/C=C/c2ccc(C(=O)Nc3cc(C(=O)Nc4cc(C(=O)NCCN(C)C)n(C)c4)n(C)c3)cc2)c1.O=C(O)C(F)(F)F ... 101.07%

Query: Param item = Cc1ncc(CNc2ccccc2F)c(N)n1 ; retrieve measured Inhibition.
Reply: -54.68%

----------
Test system: Cryptococcus neoformans
assay-conditions: Concentration 32 ug.mL-1; ASSAY_TEST Inhibition of Fungal Growth; detection method Resazurin; Absorption (OD600-OD570); plate type 384well; NBS; CORNING #3640
Potency and affinity values are given separately.
measurement-kind: Inhibition (%)
The answer is to be given in %; state only the numeric part.

Some solved cases for reference:
Cc1ncc(CO)c(N)n1 ... -45.32
COc1ccc(/C=C(/C(=O)Nc2cc(C(=O)Nc3cc(C(=O)NCCCN(C)C)n(C)c3)n(C)c2)c2ccc(OC)cc2)cc1.O=C(O)C(F)(F)F ... -5.3
CC(=O)Nc1cc(C(=O)Nc2cc(C(=O)Nc3cc(C(=O)NCCCN(C)C)n(C)c3)n(C)c2)n(C)c1.O=C(O)C(F)(F)F ... -116.29

Proceeding to the next compound to report its Inhibition.
Query: Param item = COc1cccc(C(=N)Nc2cc(C(=O)Nc3cc(C(=O)NCCC(=N)N)n(C)c3)n(C)c2)c1.O=C(O)C(F)(F)F.O=C(O)C(F)(F)F ; retrieve measured Inhibition.
Reply: 101.54

----------
System: Cryptococcus neoformans
assay-conditions: Concentration 32 ug.mL-1; ASSAY_TEST Inhibition of Fungal Growth; detection method Resazurin; Absorption (OD600-OD570); plate type 384well; NBS; CORNING #3640
Measured potencies and affinities stand elsewhere.
Under this convention, YES denotes Inhibition strictly below -50% and NO denotes Inhibition at or above -50%.

Below, 5 compounds whose answers are already recorded.
CCOC(=O)c1cc(NC(=O)c2cc(NC(=O)c3nc(N)sc3C(C)C)cn2C)cn1C ... YES
COc1ccc(CC(=O)Nc2cc(C(=O)Nc3cc(C(=O)Nc4cn(CCCN(C)C)cn4)n(C)c3)n(C)c2)cc1.O=C(O)C(F)(F)F ... YES
CC(C)CCn1cc(NC(=O)c2cc(NC(=O)c3cc(NC(=N)c4ccccc4)cn3C)cn2C)cc1C(=O)NCCCN(C)C.O=C(O)C(F)(F)F.O=C(O)C(F)(F)F ... YES
Cc1ncc(Cn2cc(CCCCO)nn2)c(N)n1 ... YES
Cn1cc(NC(=O)c2cc(NC(=O)c3cc(NC(=O)c4ccc(Cl)cc4Cl)cn3C)cn2C)cc1C(=O)NCCN1CCOCC1.O=C(O)C(F)(F)F ... NO

Query: Threshold test, Inhibition < -50%: COC(=O)CCC(=O)Nc1cc(C(=O)Nc2cc(C(=O)NCCN3CCOCC3)n(C)c2)n(C)c1.O=C(O)C(F)(F)F
Reply: YES

Query: Threshold test, Inhibition < -50%: CC(C)CCc1sc(NC(=O)c2cc(NC(=O)c3ccc(/C=C/c4cc5ccccc5nc4On4nnc5ccccc54)cc3)cn2C)nc1C(=O)NCCN1CCOCC1.O=C(O)C(F)(F)F
Reply: NO

----------
Test system: Klebsiella pneumoniae
assay-conditions: Concentration 32 ug.mL-1; ASSAY_TEST Inhibition of Bacterial Growth; detection method Absorption (OD600); MEDIA CAMHB; plate type 384well; NBS; CORNING #3640; time 18 hr
Description: Antibacterial activity against Klebsiella pneumoniae MDR ATCC 70063 (CO-ADD:GN_003); MIC in CAMBH media using NBS plates, by OD(600)
Entries with a potency or affinity are not part of this list.
measurement-kind: Inhibition
# do not omit the unit; it follows the number

Some solved cases for reference:
Cn1cc(NC(=O)c2cc(NC(=O)CCC(=O)O)cn2C)cc1C(=O)NCCN1CCOCC1.O=C(O)C(F)(F)F ... 14.45%
CC(C)CCn1cc(NC(=O)c2cc(NC(=O)c3cc(NC(=N)c4ccccc4)cn3C)cn2C)cc1C(=O)NCCCN(C)C.O=C(O)C(F)(F)F.O=C(O)C(F)(F)F ... 2.69%
Cn1cc(NC(=O)c2cc(NC(=O)c3sc(N)nc3C(F)(F)F)cn2C)cc1C(=O)NCCN1CCOCC1.O=C(O)C(F)(F)F ... -3.11%
CC(C)c1sc(N)nc1C(=O)Nc1cc(C(=O)Nc2cc(C(=O)NCCN3CCOCC3)n(C)c2)n(C)c1.O=C(O)C(F)(F)F ... -2.63%
Cc1ncc(CNc2ccc(F)cc2)c(N)n1 ... 12.64%

Query: Request: Inhibition, test system Klebsiella pneumoniae, entry CN(C)CCCNC(=O)c1cc(NC(=O)c2cc(NC(=O)c3cc(NC(=N)N)cn3C)cn2C)cn1C.O=C(O)C(F)(F)F.O=C(O)C(F)(F)F
Reply: 7.81%

Query: Request: Inhibition, test system Klebsiella pneumoniae, entry Cc1ncc(CNc2ccccc2F)c(N)n1
Reply: 12.81%

Query: Request: Inhibition, test system Klebsiella pneumoniae, entry Cc1ncc(Cn2cc(CCO)nn2)c(N)n1
Reply: -3.23%

Query: Request: Inhibition, test system Klebsiella pneumoniae, entry COC(=O)CCC(=O)Nc1cc(C(=O)Nc2cc(C(=O)NCCN3CCOCC3)n(C)c2)n(C)c1.O=C(O)C(F)(F)F
Reply: 8.45%

Query: Request: Inhibition, test system Klebsiella pneumoniae, entry Cc1ncc(Cn2cc(CCCN)nn2)c(N)n1.Cl
Reply: -8.29%

----------
Test system: Cryptococcus neoformans
assay-conditions: Concentration 32 ug.mL-1; ASSAY_TEST Inhibition of Fungal Growth; detection method Resazurin; Absorption (OD600-OD570); plate type 384well; NBS; CORNING #3640
Measured potencies and affinities stand elsewhere.
Collected Inhibition values appear next to each entry.
The answer is to be given in %; state only the numeric part.

Some solved cases for reference:
Cc1ncc(Cn2cc(CCCO)nn2)c(N)n1 ... -29.76
CC(C)CCc1sc(N)nc1C(=O)Nc1cc(C(=O)Nc2cc(C(=O)NCCN3CCOCC3)n(C)c2)n(C)c1.O=C(O)C(F)(F)F ... -77.2
Cc1ncc(CNc2ccc(F)cc2)c(N)n1 ... -57.63
CCOC(=O)CCC(NC(=O)c1ccc(NCc2cn(Cc3cnc(C)nc3N)nn2)cc1)C(=O)OCC (stereo unspecified) ... -67.67
CC(C)CCc1sc(NC(=O)c2cc(NC(=O)c3ccc(/C=C/c4cc5ccccc5nc4Cl)cc3)cn2C)nc1C(=O)NCCN1CCOCC1.O=C(O)C(F)(F)F ... -70.82

Query: Param item = Cn1cc(NC(=O)c2cc(NC(=O)c3sc(N)nc3C(F)(F)F)cn2C)cc1C(=O)NCCN1CCOCC1.O=C(O)C(F)(F)F ; retrieve measured Inhibition.
Reply: -112.77

Query: Param item = Cc1ncc(Cn2cc(CCC(=O)O)nn2)c(N)n1.O=C(O)C(F)(F)F ; retrieve measured Inhibition.
Reply: -50.97

Query: Param item = Cc1ncc(CNc2ccc(Cl)cc2)c(N)n1 ; retrieve measured Inhibition.
Reply: -54.67

Query: Param item = CC(C)CCc1sc(NC(=O)c2cc(NC(=O)c3cc(NC(=O)c4ccc(C(=O)O)cc4)cn3C)cn2C)nc1C(=O)NCCCN(C)C.O=C(O)C(F)(F)F ; retrieve measured Inhibition.
Reply: -119.21

Query: Param item = COc1cccc(C(=O)Nc2cc(C(=O)Nc3cc(C(=O)Nc4cn(CCCN(C)C)cn4)n(C)c3)n(C)c2)c1.O=C(O)C(F)(F)F ; retrieve measured Inhibition.
Reply: -93.96

Query: Param item = CN(C)CCCNC(=O)c1cc(NC(=O)c2cc(NC(=O)c3ccc(C(=O)O)cc3)cn2C)cn1C.O=C(O)C(F)(F)F ; retrieve measured Inhibition.
Reply: -106.52

Query: Param item = Cn1cc(NC(=O)c2cc(NC(=O)c3sc(N)nc3C(F)(F)F)cn2C)cc1C(=O)NCCC(=N)N.O=C(O)C(F)(F)F ; retrieve measured Inhibition.
Reply: -104.75

Query: Param item = CN(C)CCCNC(=O)c1cc(NC(=O)c2cc(NC(=O)CCC(=O)O)cn2C)cn1C.O=C(O)C(F)(F)F ; retrieve measured Inhibition.
Reply: -54.8

Query: Param item = COC(=O)c1ccc(C(=O)Nc2cc(C(=O)Nc3cc(C(=O)NCCCN(C)C)n(C)c3)n(C)c2)cc1.O=C(O)C(F)(F)F ; retrieve measured Inhibition.
Reply: -107.28

Query: Param item = CC(C)c1sc(N)nc1C(=O)Nc1cc(C(=O)Nc2cc(C(=O)NCCN3CCOCC3)n(C)c2)n(C)c1.O=C(O)C(F)(F)F ; retrieve measured Inhibition.
Reply: -112.04

Query: Param item = COc1cccc(C(=N)Nc2cc(C(=O)Nc3cc(C(=O)Nc4cn(CCCN(C)C)cn4)n(C)c3)n(C)c2)c1.O=C(O)C(F)(F)F.O=C(O)C(F)(F)F ; retrieve measured Inhibition.
Reply: -90.24
